Target: Recombinant human FGFR2 (Homo sapiens, UniProt P21802)
Sequence (P21802 22-821): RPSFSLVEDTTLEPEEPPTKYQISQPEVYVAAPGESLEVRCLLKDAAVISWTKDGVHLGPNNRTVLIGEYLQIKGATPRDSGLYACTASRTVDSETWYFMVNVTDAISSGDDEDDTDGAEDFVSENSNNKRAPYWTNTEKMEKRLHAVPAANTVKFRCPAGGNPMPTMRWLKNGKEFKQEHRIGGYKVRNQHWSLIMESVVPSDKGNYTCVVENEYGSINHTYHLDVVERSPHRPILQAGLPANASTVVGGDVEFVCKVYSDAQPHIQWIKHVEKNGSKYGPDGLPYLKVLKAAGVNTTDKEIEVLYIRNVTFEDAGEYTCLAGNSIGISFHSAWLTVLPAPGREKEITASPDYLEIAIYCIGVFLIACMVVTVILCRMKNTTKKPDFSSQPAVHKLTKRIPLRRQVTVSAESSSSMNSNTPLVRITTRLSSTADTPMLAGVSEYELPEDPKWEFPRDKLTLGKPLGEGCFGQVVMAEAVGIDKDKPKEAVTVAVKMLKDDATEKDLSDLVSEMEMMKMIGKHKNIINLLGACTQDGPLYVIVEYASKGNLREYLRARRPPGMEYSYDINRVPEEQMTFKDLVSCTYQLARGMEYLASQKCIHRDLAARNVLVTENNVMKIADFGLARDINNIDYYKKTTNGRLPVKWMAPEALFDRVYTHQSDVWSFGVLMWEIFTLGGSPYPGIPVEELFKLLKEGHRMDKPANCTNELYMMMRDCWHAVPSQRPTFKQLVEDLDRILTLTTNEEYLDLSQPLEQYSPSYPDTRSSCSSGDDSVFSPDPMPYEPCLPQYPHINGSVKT
Assay: Transcreener Kinase Assay of FGFR2
Assay type: biochemical
Details: read-out: FGFR2 (FP) IC50
Experimental: Transcreener Kinase Assay of FGFR2 • Compounds were solved in DMSO and were diluted with assay buffer to 5 folds of final concentration keeping the DMSO concentration at 5%. […] • [ADP] in Compound well represents the ADP concentration in compound well. • [ADP] in Positive control well represents the ADP concentration in 5% DMSO well • Conversion of mP value to ADP concentration is calculated based on the formula which determined by standard curve. […] IC50: calculated using XL-Fit 2.0 software.
pIC50: −log10 of the molar value.
readoutLabel: pIC50

[A] CCn1cc(Nc2ncc(CCc3c(F)c(C(=O)NC)cc(OC)c3Cl)cn2)cn1
[B] CNC(=O)c1cc(CCc2cnc(Nc3cnn(C[C@H](C)O)c3)nc2)c(F)c(OC)c1
Rank A against B by their pIC50 values and give the higher one. Let me know the label of the one you choose.
B

[1] CCN1CCC(Cn2cc(Nc3ncc(CCc4cc(C(=O)NC)cc(OC)c4Cl)cn3)cn2)CC1
[2] CNC(=O)c1cc(CCc2cnc(Nc3ccc(CC(=O)O)cc3)nc2)c(F)c(OC)c1
Input pair: 1 , 2 . Output: entry with lower pIC50. Let me know the label of the one you choose.
2

[a] CNC(=O)c1cc(OC)c(Cl)c(/C=C/c2cnc(Nc3ccc(N4C[C@@H](C)N[C@@H](C)C4)cc3)nc2)c1F
[b] CNC(=O)c1cc(CCc2cnc(Nc3ccc4nnc(C)n4c3)nc2)c(F)c(OC)c1
[c] CNC(=O)c1cc(CCc2cnc(Nc3cnn(C(F)F)c3)nc2)c(F)c(OC)c1
// ranking: key=pIC50, reverse=True # respond with the labels, arranged in the requested order
a, c, b

* * *

Tested on: RT-112
Assay: Cellular Proliferation Assay (Cell Counting Kit-8), RT-112
Assay type: cell-based
Details: Homo sapiens, RT-112 cells, 72 hours
readoutLabel: IC50 (nM)
All answers are understood in nM, so give the number only.

The examples below pair each entry with its known result.
smilesrepresentation=CCn1cc(Nc2ncc(CCc3cc(C(=O)NC)cc(OC)c3F)cn2)c(C)n1 readoutlabel=IC50 unitstring=nM reading=570
smilesrepresentation=CNC(=O)c1cc(COc2cnc(Nc3cnn(C)c3)nc2)c(Cl)c(OC)c1 readoutlabel=IC50 unitstring=nM reading=14
smilesrepresentation=CONC(=O)c1cc(CCc2cnc(Nc3cn[nH]c3)nc2)cc(OC)c1 readoutlabel=IC50 unitstring=nM reading=257

Using known records, supply IC50 for CNC(=O)c1cc(CCc2cnc(Nc3cnn(CCCN(C)C)c3)nc2)c(F)c(OC)c1
713

Using known records, supply IC50 for CNC(=O)c1cc(CCc2cnc(Nc3cnn(C(F)F)c3)nc2)c(Cl)c(OC)c1
21

Using known records, supply IC50 for CNC(=O)c1cc(COc2ccc(Nc3ccc(N4C[C@@H](C)N[C@@H](C)C4)cc3)nc2)c(F)c(OC)c1
540

Using known records, supply IC50 for CNC(=O)c1cc(CCc2cnc(Nc3cnn(C4CC4)c3)nc2)c(F)c(OC)c1
90

Using known records, supply IC50 for CCN1CCC[C@H](n2cc(Nc3ncc(CCc4cc(C(=O)NC)cc(OC)c4F)cn3)cn2)C1
57

Using known records, supply IC50 for CNC(=O)c1cc(CCc2cnc(Nc3cnn(C)c3)nc2)c(F)c(OC)c1
218

Using known records, supply IC50 for CNC(=O)c1cc(CCc2cnc(Nc3cnn(CC4CC4)c3)nc2)c(F)c(OC)c1
112

Using known records, supply IC50 for CNC(=O)c1cc(CCc2cnc(Nc3cnn([C@H]4CCCNC4)c3)nc2)c(F)c(OC)c1
584

Source of measurements: patent US20160052926A1
